target: human CaSR (Homo sapiens, UniProt P41180); test: CaSR FLIPR assay (calcilytic activity); format: cell-based; parameters: expressed in transfected cells; settings: HEK293 cells stably expressing human recombinant CaSR; 1 mM CaCl2 agonist; Tables 1-24; read-out: FLIPR ASSAY IC50
Sequence (P41180 20-1078): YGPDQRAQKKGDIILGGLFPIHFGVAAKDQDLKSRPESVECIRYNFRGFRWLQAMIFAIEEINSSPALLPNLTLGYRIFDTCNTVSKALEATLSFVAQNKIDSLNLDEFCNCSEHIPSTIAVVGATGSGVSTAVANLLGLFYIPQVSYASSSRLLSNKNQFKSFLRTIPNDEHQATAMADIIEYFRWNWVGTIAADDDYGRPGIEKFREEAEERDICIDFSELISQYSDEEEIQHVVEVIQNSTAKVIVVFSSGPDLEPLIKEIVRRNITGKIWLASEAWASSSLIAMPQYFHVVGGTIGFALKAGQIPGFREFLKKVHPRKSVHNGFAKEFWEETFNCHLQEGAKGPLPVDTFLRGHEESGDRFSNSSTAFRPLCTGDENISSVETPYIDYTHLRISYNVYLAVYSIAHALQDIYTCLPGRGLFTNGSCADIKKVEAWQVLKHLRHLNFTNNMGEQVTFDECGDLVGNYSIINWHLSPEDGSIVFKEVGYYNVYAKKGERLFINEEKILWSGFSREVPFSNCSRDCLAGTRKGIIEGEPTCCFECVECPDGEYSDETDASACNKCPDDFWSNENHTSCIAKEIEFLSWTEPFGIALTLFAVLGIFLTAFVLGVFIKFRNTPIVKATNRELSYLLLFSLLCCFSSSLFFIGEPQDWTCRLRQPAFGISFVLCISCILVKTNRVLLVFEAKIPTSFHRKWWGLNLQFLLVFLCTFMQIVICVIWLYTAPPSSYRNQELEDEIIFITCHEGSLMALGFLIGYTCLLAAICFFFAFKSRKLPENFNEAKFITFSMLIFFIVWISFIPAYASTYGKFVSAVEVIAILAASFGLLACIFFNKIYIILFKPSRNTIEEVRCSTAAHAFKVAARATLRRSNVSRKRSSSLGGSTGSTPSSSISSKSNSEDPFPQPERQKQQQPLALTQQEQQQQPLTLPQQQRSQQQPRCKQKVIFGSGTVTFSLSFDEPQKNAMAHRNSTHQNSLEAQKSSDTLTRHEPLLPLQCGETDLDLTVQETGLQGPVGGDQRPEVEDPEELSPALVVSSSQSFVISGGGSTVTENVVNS
pIC50: −log10 of the molar value.
Below, each entry is listed alongside its reported pIC50.
OBSERVABLE: pIC50

INSERT INTO assay_data (compound_string, assayed_system, data_value) VALUES
  ('C[C@@H](OC[C@H](O)CNC(C)(C)Cc1ccc2sccc2c1)c1cccc2c1[C@@H]1[C@H](O2)[C@H]1C(=O)O', 'human CaSR (Homo sapiens, UniProt P41180)', 7.64),
  ('C[C@@H](OC[C@H](O)CNC(C)(C)Cc1ccc2c(c1)OCCO2)c1cccc2c1[C@@H]1[C@H](O2)[C@H]1C(=O)O', 'human CaSR (Homo sapiens, UniProt P41180)', 6.82),
  ('C[C@@H](OC[C@H](O)CNC(C)(C)Cc1ccc2ccccc2c1)c1cccc2c1[C@@H]1[C@H](C2)[C@H]1C(=O)O', 'human CaSR (Homo sapiens, UniProt P41180)', 7.55),
  ('Cc1cc(Cl)c([C@@H](C)OC[C@H](O)CNC(C)(C)Cc2ccc3c(c2)OCCO3)c2c1O[C@@H]1[C@@H](C(=O)O)[C@H]21', 'human CaSR (Homo sapiens, UniProt P41180)', 7.39),
  ('C[C@@H](OC[C@H](O)CNC(C)(C)Cc1ccc2ccccc2c1)c1cccc2c1O[C@@H]1[C@@H](C(=O)NS(=O)(=O)C3(C)CC3)[C@H]21', 'human CaSR (Homo sapiens, UniProt P41180)', 7.22),
  ('Cc1ccc([C@@H](C)OC[C@H](O)CNC(C)(C)Cc2ccc3c(c2)CCC3)c2c1O[C@H]1[C@H](C(=O)O)[C@@H]21', 'human CaSR (Homo sapiens, UniProt P41180)', 7.28);

---

Biological target: human CaSR (Homo sapiens)
Experiment: CaSR FLIPR assay (calcilytic activity)
Type: cell-based
Set-up: expressed in transfected cells
Settings: HEK293 cells stably expressing human recombinant CaSR; 1 mM CaCl2 agonist; Tables 1-24; read-out: FLIPR ASSAY IC50
Description: Procedures for CaSR FLIPR Assay Calcilytic activity of the compound is measured in HEK293 cells stably expressing human recombinant CaSR (HEK-CaSR) using a FLIPR^TETRA device (Molecular Devices, Sunnyvale, Calif.) according to the manufacturer's directions. […] After reading the base line, the compounds in 0.5% DMSO in dilution buffer were added to their respective wells as 20 μl aliquots at 6×the final drug concentration. The fluorescence signals were then read. […]
pIC50: −log10 of the molar value.
Label condition met when pIC50 >= 7; otherwise condition not met.

INSERT INTO measurements (compound, assayed_system, class_name) VALUES
  ('C[C@@H](OC[C@H](O)CNC(C)(C)Cc1ccc2c(c1)CCC2)c1cccc2c1[C@@H]1[C@H](O2)[C@H]1C(=O)O', 'human CaSR (Homo sapiens)', 'condition met'),
  ('C[C@@H](OC[C@H](O)CNC(C)(C)Cc1ccc2ccccc2c1)c1ccc(F)c2c1C1C(O2)C1C(=O)O (stereo partly shown)', 'human CaSR (Homo sapiens)', 'condition met'),
  ('COc1ccc(CC(C)(C)NC[C@@H](O)CO[C@H](C)c2ccc(C)c3c2[C@@H]2[C@H](O3)[C@H]2C(=O)O)c(Cl)c1', 'human CaSR (Homo sapiens)', 'condition met'),
  ('Cc1ccc([C@@H](C)OC[C@H](O)CN2CCCC2Cc2ccccc2)c2c1O[C@@H]1[C@@H](C(=O)O)[C@H]21 (stereo partly shown)', 'human CaSR (Homo sapiens)', 'condition not met'),
  ('C[C@@H](OC[C@H](O)CNC(C)(C)CN1CCc2ccccc2C1)c1cccc2c1O[C@H]1[C@H](C(=O)O)[C@@H]21', 'human CaSR (Homo sapiens)', 'condition not met'),
  ('CSc1ccc(CC(C)(C)NC[C@@H](O)CO[C@H](C)c2c(Cl)cc(C)c3c2[C@@H]2[C@H](O3)[C@H]2C(=O)O)cc1F', 'human CaSR (Homo sapiens)', 'condition met'),
  ('COc1ccc(CC(C)(C)NC[C@@H](O)CO[C@H](C)c2ccc(C)c3c2[C@@H]2[C@H](O3)[C@H]2C(=O)O)c(F)c1', 'human CaSR (Homo sapiens)', 'condition met'),
  ('C[C@@H](OC[C@H](O)CNC(C)(C)Cc1ccc2ccccc2c1)c1cccc2c1[C@@H]1[C@H](O2)[C@H]1C(=O)O', 'human CaSR (Homo sapiens)', 'condition met'),
  ('Cc1ccc([C@@H](C)OC[C@H](O)CNC(C)(C)Cc2ccc3ccccc3c2)c2c1O[C@H]1[C@H](C(=O)O)[C@@H]21', 'human CaSR (Homo sapiens)', 'condition met'),
  ('CC(OC[C@H](O)CNC(C)(C)Cc1ccc2ccccc2c1)c1cccc2c1C1C(S2)C1C(=O)O (stereo partly shown)', 'human CaSR (Homo sapiens)', 'condition met'),
  ('Cc1ccc([C@@H](C)OC[C@H](O)CNC(C)(C)Cc2ccc3occc3c2)c2c1O[C@@H]1[C@@H](C(=O)O)[C@H]21', 'human CaSR (Homo sapiens)', 'condition met'),
  ('C[C@@H](OC[C@H](O)CNC(C)(C)Cc1ccc2c(c1)OCO2)c1cccc2c1O[C@@H]1[C@@H](C(=O)O)[C@H]21', 'human CaSR (Homo sapiens)', 'condition not met'),
  ('Cc1ccc([C@@H](C)OC[C@H](O)CNC(C)(C)Cc2c(F)cc(F)cc2F)c2c1O[C@@H]1[C@@H](C(=O)O)[C@H]21', 'human CaSR (Homo sapiens)', 'condition not met'),
  ('Cc1ccc(CC(C)(C)NC[C@@H](O)CO[C@H](C)c2cccc3c2O[C@@H]2[C@@H](C(=O)O)[C@H]32)cc1C', 'human CaSR (Homo sapiens)', 'condition not met'),
  ('Cc1ccc([C@@H](C)OC[C@H](O)CNC(C)(C)CC2Cc3ccccc3C2)c2c1O[C@@H]1[C@@H](C(=O)O)[C@H]21', 'human CaSR (Homo sapiens)', 'condition met'),
  ('CSc1ccc(CC(C)(C)NC[C@@H](O)CO[C@H](C)c2cccc3c2[C@@H]2[C@H](O3)[C@H]2C(=O)O)cc1F', 'human CaSR (Homo sapiens)', 'condition met'),
  ('Cc1ccc(CC(C)(C)NC[C@@H](O)CO[C@H](C)c2ccc(C)c3c2C2[C@H](O3)[C@H]2C(=O)O)cc1C (stereo partly shown)', 'human CaSR (Homo sapiens)', 'condition met'),
  ('C[C@@H](OC[C@H](O)CNC(C)(C)COCc1ccccc1)c1cccc2c1O[C@H]1[C@H](C(=O)O)[C@@H]21', 'human CaSR (Homo sapiens)', 'condition not met'),
  ('Cc1ccc([C@@H](C)OC[C@H](O)CNC(C)(C)Cc2ccc3c(c2)CCS3(=O)=O)c2c1O[C@@H]1[C@@H](C(=O)O)[C@H]21', 'human CaSR (Homo sapiens)', 'condition not met');
